target: recombinant human beta tryptase (Homo sapiens); experiment: beta-Tryptase inhibition, chromogenic enzyme assay (S2366 substrate); details: Ki calculated from IC50: Ki=IC50/(1+[Substrate]/Km), 0.5 mM S2366, room temperature
Sequence (Q15661 31-275): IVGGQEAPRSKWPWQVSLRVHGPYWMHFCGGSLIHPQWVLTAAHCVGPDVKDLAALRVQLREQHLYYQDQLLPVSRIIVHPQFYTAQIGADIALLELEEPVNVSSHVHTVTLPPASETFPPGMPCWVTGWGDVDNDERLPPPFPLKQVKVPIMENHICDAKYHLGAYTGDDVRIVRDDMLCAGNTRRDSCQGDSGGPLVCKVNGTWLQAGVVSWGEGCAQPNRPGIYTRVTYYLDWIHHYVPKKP
pKi: −log10 of the molar value. Structures can show the parent of a compound that is named as a salt.
value_kind: pKi

Examples from the recorded data:
INPUT: For the compound NCc1ccc(F)c(C2CCN(C(=O)c3c[nH]c4cnccc34)CC2)c1 [Example 5, dihydrochloride] , report pKi.
OUTPUT: 6.66

INPUT: Dear colleague, please send me the reported pKi for NCc1ccc(F)c(C2CCN(C(=O)c3cc4cccnc4[nH]3)CC2)c1 [Example 1, dihydrochloride] when you can.
OUTPUT: 6.66

INPUT: Please report pKi for the following compound: COCCn1cc(C(=O)N2CCC(c3cccc(CN)c3)CC2)c2ccncc21 [Example 8, dihydrochloride]
OUTPUT: 7.00

INPUT: Please indicate pKi recorded for COCCn1cc(C(=O)N2CCC(c3cc(CN)ccc3F)CC2)c2cccnc21 [Example 20, dihydrochloride]
OUTPUT: 7.04

INPUT: Indicate its recorded pKi; the compound in question is COCCn1cc(C(=O)N2CCC(c3cc(CN)ccc3F)CC2)c2cnccc21 [Example 10, dihydrochloride]
OUTPUT: 6.74

1. NCc1ccc(F)c(C2CCN(C(=O)c3cn(CCN4CCCCC4)c4cccnc34)CC2)c1 [Example 17, trihydrochloride]
2. COCCn1c(C(=O)N2CCC(c3cc(CN)ccc3F)CC2)cc2cccnc21 [Example 2, dihydrochloride]
3. COCCn1cc(C(=O)N2CCC(c3cc(CN)ccc3F)CC2)c2ccncc21 [Example 9, dihydrochloride]
4. COCCn1cc(C(=O)N2CCC(c3cc(CN)ccc3F)CC2)c2nccc(OC)c21 [Example 15, dihydrochloride]
5. COCCOc1nccc2c(C(=O)N3CCC(c4cc(CN)ccc4F)CC3)cn(CCOC)c12 [Example 11, dihydrochloride]
INPUT: Provide the items ranked by increasing pKi. Form field (ranking): labels in requested order.
OUTPUT: 2, 1, 5, 3, 4
